Entry source: ChEMBL document CHEMBL3988442

List of Percent Effect values.
System Name: Chromo domain-containing protein 1 (Saccharomyces cerevisiae (strain ATCC 204508 / S288c) (Baker's yeast)) (UniProt P32657)
Sequence (P32657 whole entry, the tested form may be a part): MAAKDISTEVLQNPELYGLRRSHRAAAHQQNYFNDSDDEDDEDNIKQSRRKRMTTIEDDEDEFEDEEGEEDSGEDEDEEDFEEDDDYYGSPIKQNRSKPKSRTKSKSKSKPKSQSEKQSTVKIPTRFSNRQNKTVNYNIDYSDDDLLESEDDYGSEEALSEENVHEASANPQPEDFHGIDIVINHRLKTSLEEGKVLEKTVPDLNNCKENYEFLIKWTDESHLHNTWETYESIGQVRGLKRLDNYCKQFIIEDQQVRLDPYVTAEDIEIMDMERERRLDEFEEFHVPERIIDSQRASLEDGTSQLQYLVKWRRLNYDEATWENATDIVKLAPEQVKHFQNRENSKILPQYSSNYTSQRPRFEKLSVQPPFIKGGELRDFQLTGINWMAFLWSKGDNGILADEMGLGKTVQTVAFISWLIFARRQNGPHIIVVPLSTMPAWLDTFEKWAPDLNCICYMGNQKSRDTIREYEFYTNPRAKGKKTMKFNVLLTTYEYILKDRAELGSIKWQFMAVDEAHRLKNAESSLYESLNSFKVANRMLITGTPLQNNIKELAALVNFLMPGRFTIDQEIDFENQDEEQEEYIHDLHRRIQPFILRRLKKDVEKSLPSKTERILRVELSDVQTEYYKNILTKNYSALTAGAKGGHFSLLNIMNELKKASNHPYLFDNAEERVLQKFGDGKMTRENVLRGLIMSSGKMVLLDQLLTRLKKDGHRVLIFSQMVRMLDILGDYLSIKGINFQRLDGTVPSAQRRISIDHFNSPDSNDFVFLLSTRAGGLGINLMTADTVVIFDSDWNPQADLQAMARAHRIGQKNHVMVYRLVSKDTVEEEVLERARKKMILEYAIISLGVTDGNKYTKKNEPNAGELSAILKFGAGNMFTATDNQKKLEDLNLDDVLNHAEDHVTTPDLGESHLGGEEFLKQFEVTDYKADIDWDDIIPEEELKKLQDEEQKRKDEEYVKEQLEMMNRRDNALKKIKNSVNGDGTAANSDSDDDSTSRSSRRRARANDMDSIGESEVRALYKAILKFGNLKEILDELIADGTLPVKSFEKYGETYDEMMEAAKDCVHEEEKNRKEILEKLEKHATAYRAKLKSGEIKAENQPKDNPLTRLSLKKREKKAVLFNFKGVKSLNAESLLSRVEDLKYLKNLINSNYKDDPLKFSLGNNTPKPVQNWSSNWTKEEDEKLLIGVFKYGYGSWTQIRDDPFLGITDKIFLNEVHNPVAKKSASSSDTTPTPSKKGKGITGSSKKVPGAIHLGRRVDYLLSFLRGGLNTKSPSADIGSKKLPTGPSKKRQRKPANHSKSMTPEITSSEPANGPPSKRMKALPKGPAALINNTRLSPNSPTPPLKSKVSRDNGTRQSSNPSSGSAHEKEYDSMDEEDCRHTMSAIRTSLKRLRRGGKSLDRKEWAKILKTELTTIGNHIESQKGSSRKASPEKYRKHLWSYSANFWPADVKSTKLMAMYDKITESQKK
Experimental Protocol: ScCHD-1 Enzyme Inhibition Assay
Assay type: functional
Design: scale not given: in the data most compounds retested in dose-response had high values
Applied Conditions: 30 µM
Assay Endpoint: Percent Effect (%)

O=C(NCc1csc(Br)c1)c1ccncc1 | -29.5
Cc1cnn(C2CCCN(C(=O)CCCNc3ncccn3)C2)c1 (centres undefined) | -4.22
Cn1cc(NS(=O)(=O)c2ccc(OC(F)(F)F)cc2)ccc1=O | -4.48
COc1ccc(C(=O)N2Cc3c(Cn4ccnc4)nn(C)c3C2)cc1 | -3.95
O=C(NCc1cncc2c1CCN(Cc1cccs1)C2)C1CC1 | 0.102
CC(C)c1nc(C2CCCN2CCc2ccncc2)no1 (centres undefined) | -0.507
Cc1ncsc1C(=O)N1CCCC(c2noc(C(C)C)n2)C1 (centres undefined) | -10.2
CNC(=O)c1cc2c(nc1NCC1CC1)CCN(S(=O)(=O)C1CC1)CC2 | -8.62
N#Cc1ccc(C(=O)N2CC[C@H]3[C@@H]2CCC(=O)N3c2ccccc2)cc1 | -4.7
CCc1nc(C2CCCN2Cc2nc(C3CC3)no2)no1 (centres undefined) | -6.42
Cc1ccc2c(n1)N(CCN(C)C)CCN(C(=O)c1ccc[nH]1)C2 | -1.69
O=C(c1ccc2c(c1)OCO2)N1CCCC(n2cccn2)C1 (centres undefined) | -7.12
O=C(c1nc(COc2ccc3c(c2)OCO3)no1)N1CCCC1 | -8.92
CCN1CCN(C2CCN(Cc3nc(-c4ccoc4)no3)CC2)C1=O | -2.83
O=C(C1CCCCN1Cc1nc(-c2ccco2)no1)N1CCCC1 (centres undefined) | 5.11
COCCN1CCN(C(=O)c2ccncc2F)Cc2cccnc21 | -10.5
Cc1nc2ccnn2c(C)c1CCC(=O)N1CCN(C2CC2)CC1 | -7.28
CC(C)C1CN(C(=O)c2nccnc2N)CCS1 (centres undefined) | -9.31
O=C(c1ccncc1)N1CCC(c2nc(O)cc(-c3ccncc3)n2)C1 (centres undefined) | -6.07
Cc1csc(N2CCN(Cc3ccccn3)CC2C)n1 (centres undefined) | -2.29
CS(=O)(=O)N1C[C@@H]2CC[C@H](C1)N(Cc1cscn1)C2=O | -6.64
COCCCN1CCCN(C(C)C(=O)Nc2ccnn2C(C)C)CC1 (centres undefined) | -4.29
O=C(C1CC(=O)N(C2CCCC2)C1)N1CCN(CCn2cccc2)CC1 (centres undefined) | -7.64
CCNC(=O)NC(=O)CSC(C)c1c(F)cccc1F (centres undefined) | -6.68

====

System Name: Proteasome subunit beta (Trypanosoma cruzi) (UniProt O96673)
Sequence (whole entry): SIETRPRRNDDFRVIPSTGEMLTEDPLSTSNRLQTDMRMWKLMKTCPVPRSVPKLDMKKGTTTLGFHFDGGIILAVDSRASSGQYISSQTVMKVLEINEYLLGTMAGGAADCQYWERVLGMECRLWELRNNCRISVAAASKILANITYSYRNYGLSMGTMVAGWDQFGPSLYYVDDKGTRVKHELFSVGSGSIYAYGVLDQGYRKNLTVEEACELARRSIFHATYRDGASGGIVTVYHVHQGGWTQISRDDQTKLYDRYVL
Experimental Protocol: Trypanosoma cruzi proteasome chymotrypsin-like activity (TcProtChymo) assay.
Format: functional
Set-up: scale not given: in the data most compounds retested in dose-response had high values
Applied Conditions: 9.37 µM
Assay Endpoint: Percent Effect (%)

CCn1nc(C)c2nnn(CC(=O)Nc3cccc(Cl)c3)c(=O)c21 | 12.9
CCN1CCC(CNC(=O)NCc2cc(-c3ccc(C)cc3)no2)C1 (centres undefined) | 12.2
COc1cccc(NC(=O)N(CCO)Cc2ccsc2)c1 | 12.3
O=C(Nc1cccc(OCc2ccc(F)cc2)c1)C1COCCO1 (centres undefined) | 14.3
Cc1cc(C[C@@H]2COC[C@H]2NCc2ccc(Br)s2)on1 | -1.72
CC(C)NC(=O)[C@@H]1C[C@H](N)CN1C(=O)c1cc2c([nH]c1=O)CCCC2 | 17.7
O=C(Cn1nc(-c2cccs2)ccc1=O)N1CCCCCC1 | 7.21
Cc1cnn(CCNCc2csc(C)n2)c1 | 7.5
COc1ccccc1Oc1ncccc1CNC(=O)C(C)N1CCCC1 (centres undefined) | 11.8
Cc1cnn(CC2CCCN2Cc2cc(=O)n3ccccc3n2)c1 (centres undefined) | 16.7
O=C(CCC(=O)N1CCCC1c1cccs1)N1CCc2sccc2C1 (centres undefined) | 3.42
Cc1cnn(CC2CCCN2C(=O)c2ccc3cc[nH]c3c2)c1 (centres undefined) | 2.4
CN(CC1CCCO1)C1CCN(CCc2ccccn2)CC1 (centres undefined) | -0.898
CN(C)c1ncccc1CNC(=O)N1CCCC1CN1CCCCC1 (centres undefined) | 9.63
Cc1ccc(NC2CCN(C(=O)Cc3cccc(F)c3)CC2)nn1 | 6.67
CCC(=O)N(C)C1CCN(Cc2ncc(C)c(OC)c2C)CC1 | 18.9
Cc1ncsc1C(=O)NC1CCN(CC(=O)N(C)C(C)(C)C#N)CC1 | -2.45
O=C(NCCCn1cncn1)NCC(c1ccccc1)N1CCCC1 (centres undefined) | 14.6
O=C(Cn1nc2c(cc1=O)CCCC2)N[C@@H](Cc1ccccc1)C(=O)O | 16.1
Cc1ccccc1S(=O)(=O)NC(=O)CSc1ccc2c(c1)OCCO2 | 10
Cc1nc(CN2C(=O)CCC23CCN(c2ncccn2)CC3)cs1 | 19.3
O=C(Cc1ccsc1)NCC1OCCc2cn(CC3CC3)nc21 (centres undefined) | 9.92
CN(CCOc1cccc(CNC(=O)C2CC2)c1)C1CCOCC1 | -3.45
Cc1cnn(CC2CCCCN2C(=O)CN(C)C2CC2)c1 (centres undefined) | 16.8
